# Lookup of reported apparent KD of MS2 coat protein keyed by entry
- Test system: MS2 coat protein
- assayExplanation: apparent KD of MS2 coat protein; higher = weaker reporter binding
- assayConditions: Eterna round: R107; input ligand: theophylline 20 uM
Just the number in nM, nothing appended.

{"columns": ["sequenceData", "apparent KD of MS2 coat protein, nM"],
 "data": [
  ["ACAUCCAGAUUAAUCGUGGGCAUACUCGAUACCAGUAUUUUAACCUACCCUUGGCAGCGACAUGAGGAUCACCCAUGUGAGAUGA [XTheo A #10]", 25.2],
  ["CACGCGGUGUCGGCCGCCACUGACGCCCGUGGGUCUCCUGACAUGAGGAUCACCCAUGUACAGCGCAGGACCGGGACACCAACAA [Are]", 59]
]}

Documented apparent KD of MS2 coat protein of UACCCAUAGGGAAGGAGCGCGCUAACAUGAGGAUCACCCAUGUAAAGGGUUUCUGGCUUAGCGCAGGUAGGUCGCCCUAUGGGUA [#10 Exclusion - Arginine B] : 400

----------
- Tested on: MS2 coat protein
- assayExplanation: apparent KD of MS2 coat protein; higher = weaker reporter binding
- assayConditions: Eterna round: R107; input ligand: arginine 13.2 mM
# Lookup of reported apparent KD of MS2 coat protein keyed by entry
Quick note: unit goes after the number.

Documented apparent KD of MS2 coat protein of AGCCACUCGAGUGAUCCUCACGAGUGGCAACGAGGACCGGUACGGCCGCCACUCGAAUCAACAUGAGGAUCACCCAUGUAAUAAU [Brourdmod01] : 0.0282 µM

Documented apparent KD of MS2 coat protein of AUUCAUGGAAACAUGACAUAGGGAUCUAGCCGAGGACCGGUACGGCCGCCACUCGCUUGGAGGCACAUGAGGAUCACCCAUGUUA [SS Tryp A #6] : 0.0423 µM

Documented apparent KD of MS2 coat protein of "UGUAUGUGAUCUGAUACCAGAGUGACGCGAAAGCGAAACCUGAGGAUCACCCUGGUAAAACUCCCUUGGCAGCAGAUCGCAUACU" : 0.076 µM

----------
- Test system: MS2 coat protein
- assayExplanation: apparent KD of MS2 coat protein, switch ON state; designed switch direction (-1 OFF switch, 1 ON switch): 1; higher = weaker reporter binding
- assayConditions: FMN input: 0 or 200 uM; Eterna round: R93 (includes R88 designs)
Assign class by apparent KD of MS2 coat protein: not lower than 20 nM means condition met; lower than 20 nM means condition not met.

Example cases with answers are listed next.
{"columns": ["sequenceData", "testedOn", "assignedCategory"],
 "data": [
  ["AAAAAAAAAAGUGAGGAUAUGGGAAAAUUAACAUGAGGAUCACCCAUGUGAUAAAAAAAAAAAAACCAGAAGGUACAAAAAAAAA [Original 73%, More Wateronthemoon, 1]", "MS2 coat protein", "condition not met"],
  ["UCGUCCUCGUGCUAGGAUAUCCAUCGUAAAACAUGAGGAUCACCCAUGUAGAAAUGCGCCUACGAGGAGAAGGAGCGAUGUGGAU [Velemageer]", "MS2 coat protein", "condition not met"],
  ["UAGCAGUGCGGGUAGGAUAUGUAGGGUGGUACAUGAGGAUCACCCAUGUAUCCACCCUUCGACCGGCAGAAGGGCCUGUCACUGC [Edor]", "MS2 coat protein", "condition not met"]
]}

Consider the additional sequence presented here.
Lookup: API: above_or_equal(metric=apparent KD of MS2 coat protein, cutoff=20 nM) for item AGAAAGAAAAGAGAGGAUAUCUAAAAGAAAACAUGAGGAUCACCCAUGUAAAAGAAAAGAAAAUGGGAGAAGGCUUAUGAGAAAG [JL Skelter Mod 8 In the Red]
Found: condition met

----------
- System: MS2 coat protein
- assayExplanation: apparent KD of MS2 coat protein; designed switch direction (-1 OFF switch, 1 ON switch): 1; higher = weaker reporter binding
- assayConditions: Eterna round: R95; input ligand: FMN 200 uM
Assign class by apparent KD of MS2 coat protein: not lower than 0.03 µM means condition met; lower than 0.03 µM means condition not met.

Example cases with answers are listed next.
{"columns": ["sequenceData", "testedOn", "assignedCategory"],
 "data": [
  ["AGAAAACAUGAGGAUCACCCAUGUAUAGUGAAUACAGGAUAUCAUCGACGGAAUAGUUGAUGAGAAGGGUGAUCGC [Gebiatan] (puzzle: Same State 1)", "MS2 coat protein", "condition not met"],
  ["AGGCGGAUAUCACAGGAUAUGUGCGCGUUCACAUGAGGAUCACCCAUGUAAAGGACGAGCCAAAAGCAGAAGGGUGACCACGCGA [Aedorlebe] (puzzle: Same State 2)", "MS2 coat protein", "condition not met"],
  ["ACAGCCGGCACUGAGGAUAUUCAUAUUAAAACAUGAGGAUCACCCAUGUAGGCCAGAAGGCCUUGGGAGAAGGCAGGUCGGCUGA [Mat - Same State 2 - Mod of UCT - D64] (puzzle: Same State 2)", "MS2 coat protein", "condition not met"]
]}

Lookup: API: above_or_equal(metric=apparent KD of MS2 coat protein, cutoff=0.03 µM) for item GGGCCAGCCUGUGCUGGGCUUUAGCAUGCACAUGAGGAUCACCCAUGUCGUGUACAUGCUUUUUGCUCGUCUUUAAA [Photon Torp-08] (puzzle: Sensor for hsa-mir-208a)
Found: condition met

Lookup: API: above_or_equal(metric=apparent KD of MS2 coat protein, cutoff=0.03 µM) for item CUAACAACAGGUUGCAGUGCUCGUCUCUAACAUGAGGAUCACCCAUGUAAUAGCCCGGUGGAAGCGCUCGGGUCACC [Tearor] (puzzle: Sensor for hsa-mir-208a)
Found: condition not met

Lookup: API: above_or_equal(metric=apparent KD of MS2 coat protein, cutoff=0.03 µM) for item AAGGGAUGAGCGUAGGAUAUAGGAGAAGUGACAUGAGGAUCACCCAUGUAAAAGGAGGGAUGAGACUAGAAGGACGAGGUAGGAG [JR_SS2_Sub059] (puzzle: Same State 2)
Found: condition met

----------
- System: MS2 coat protein
- assayExplanation: apparent KD of MS2 coat protein; designed switch direction (-1 OFF switch, 1 ON switch): -1; higher = weaker reporter binding
- assayConditions: input ligand: none
assayEndpoint: apparent KD of MS2 coat protein (nM)
Just the number in nM, nothing appended.

Documented apparent KD of MS2 coat protein of CUCGUAUUAUACAUGAGGAUCACCCAUGUGGUCACCACUCACGAGGAUAUCCCGGGAAACCGAACGGAGAAGGUGUAGAGUCAU [Eternabot solution 44] (Eterna round: R96, puzzle: Exclusion NG 3) : 196

Documented apparent KD of MS2 coat protein of GUGGUUUGUGUAGGAUAUUCGUUUGUGCGGUGCGGAGAAGGACAUGAGGAUCACCCAUGUGUGCGAGGAUCACCCGUGUGUUGU [double 2 (less A)] (Eterna round: R96, puzzle: Exclusion NG 1) : 50.5

Documented apparent KD of MS2 coat protein of AGAAAUUCAAGAGGAUAUCACAUGAGGAUCACCCAUGUAUAGCGCGCUACGCUAGUCCUCGUAUUUGAGAAGGUUUGAUAAAAG [Mat - Exclusion NG 2 - Mod of JL - D77] (Eterna round: R96, puzzle: Exclusion NG 2) : 15.7

----------
- Tested on: MS2 coat protein
- assayExplanation: apparent KD of MS2 coat protein; higher = weaker reporter binding
- assayConditions: Eterna round: R107; input ligand: theophylline 2 mM
Assign class by apparent KD of MS2 coat protein: not lower than 80 nM means satisfied; lower than 80 nM means not satisfied.

Example cases with answers are listed next.
{"columns": ["sequenceData", "testedOn", "assignedCategory"],
 "data": [
  ["CGCUACAUGAGGAUCACCCAUGUUACUCCGCGAGGACCGGUACGGCCGCCACUCGGCAGUUUGCGCCGCCGGAGGCACUCUUCAG [theeternabot_sameState_MS2_Trp_A_32]", "MS2 coat protein", "not satisfied"],
  ["CCUCGACAUGAGGAUCACCCAUGUAGAGAUACCAGCCUGUGAGAUGGCCCUUGGCAGCUCAUAUAGGGUACGGGAGUCGUUUCGA [Eslaqu]", "MS2 coat protein", "satisfied"],
  ["UCGGGCAGAGCGGCCGCCACUGUUUGGCGUGCGGAUGACGGAACAUGAGGAUCACCCAUGUUGUUUAGGACCGGGCUUGCGGCGU [ipimullin]", "MS2 coat protein", "not satisfied"],
  ["CUCCCUUCGGCGGCCGCCACUAACAGUUUAAUGGACUUUCGGGUCCACAUGAGGAUCACCCAUGUUAGGACCGGGCCCUUGCUCU [theeternabot_exclusion_MS2_Trp_B_39]", "MS2 coat protein", "not satisfied"]
]}

Consider the additional sequence presented here.
Lookup: API: above_or_equal(metric=apparent KD of MS2 coat protein, cutoff=80 nM) for item GGUCACCUAUCCUCAUUGGUGACCCUGGAAGGAGCGAGCGAGAGCUCAGGUAGGUCGCCAGAACAUGAGGAUCACCCAUGUAAUA [(A)''-(M)'-(A)'(Arg1)-(Arg2)-(M1)-(M2)_Design12]
Found: satisfied
